Measured values drawn from patent US20210355194A1 for this set.

Molecular target: T1, SARS-CoV-2 S1 protein (SARS-CoV-2, UniProt P0DTC2 16-685)
T1 construct: also called SARS-CoV-2 Spike Glycoprotein S1; S1 (subunit 1)
Test: phage ELISA screen on S1, mean
readoutType: ELISA(Avg) (fold over background)
Entry rule: numbers only, all in fold over background.

Name the recorded ELISA(Avg) of the item 2-17 (antibody, V domains shown, also called variant 2-17) VH: EVQLLESGGGLVQPGGSLRLSCAASGFTFSNYAMSWVRQAPGKGLEWVSAISGSAGSTYYADSVKGRFTISRDNSKNTLYLQMNSLRAEDTAVYYCARVRQGLRRTWYYFDYWGQGTLVTVSS VL: DIQMTQSPSSLSASVGDRVTITCTGTSSDVGSSNLVSWYQQKPGKAPKLLIYEGSKRPSGVPSRFSGSGSGTDFTLTISSLQPEDFATYYCCSYAGSLYVFGQGTKVEIK in your answer.
3.5
